system: T1, human TNFR2 (human, UniProt P20333 23-461)
T1 construct: expressed on the surface of CHO cells; also called HuTNFR2; TNFRSF1B
T1 sequence: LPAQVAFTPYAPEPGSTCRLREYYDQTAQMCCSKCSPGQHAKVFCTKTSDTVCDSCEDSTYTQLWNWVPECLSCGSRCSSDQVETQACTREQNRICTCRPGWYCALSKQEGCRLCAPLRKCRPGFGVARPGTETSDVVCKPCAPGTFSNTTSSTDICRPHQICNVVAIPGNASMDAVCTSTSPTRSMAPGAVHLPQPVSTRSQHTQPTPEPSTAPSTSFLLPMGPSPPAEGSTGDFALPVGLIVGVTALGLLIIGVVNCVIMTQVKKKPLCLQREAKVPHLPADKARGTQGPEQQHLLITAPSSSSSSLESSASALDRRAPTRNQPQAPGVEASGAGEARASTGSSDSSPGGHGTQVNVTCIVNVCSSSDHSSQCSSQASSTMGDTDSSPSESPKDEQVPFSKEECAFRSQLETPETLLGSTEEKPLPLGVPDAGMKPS
procedure-details: binding to human TNFR2 CHO cells
test-readout: binding result

IgG 2037 (antibody, name in Kabat numbering, V domains shown, IgG) VH: QVQLVQSGAEVKKPGASVKVSCKVSGFSFPSSGVDWVRQAPGQGLEWLGVTRGEGSTHYNQKFQGRVTITKDTSKSTVYMELSSLRSEDTAVYYCASGESTEGFVYWGQGTLVTVSS VL: DIQLTQSPSFLSASVGDRVTITCKASQNVGTAVAWYQQKPGKAPKLLIYAASTLQSGVPSRFSGSGSGTEFTLTISSLQPEDFATYYCLQYSSYPLTFGGGTKVEIKR :: no binding
IgG 1962 (antibody, name in Kabat numbering, V domains shown, IgG) VH: QVQLVQSGAEVKKPGASVKVSCKVSGFSFPSSGVDWVRQAPGQGLEWLGVTFQEGSTHYNQKFQGRVTITKDTSKSTVYMELSSLRSEDTAVYYCASGEHDEGFVYWGQGTLVTVSS VL: DIQLTQSPSFLSASVGDRVTITCKASQNVGTAVAWYQQKPGKAPKLLIYAASTLQSGVPSRFSGSGSGTEFTLTISSLQPEDFATYYCQQYSSYPLTFGGGTKVEIKR :: no binding
IgG 2019 (antibody, name in Kabat numbering, V domains shown, IgG) VH: QVQLVQSGAEVKKPGASVKVSCKVSGFSFPSSGVDWVRQAPGQGLEWLGVTRGEGSTHYNQKFQGRVTITKDTSKSTVYMELSSLRSEDTAVYYCASGERDEGFVYWGQGTLVTVSS VL: DIQLTQSPSFLSASVGDRVTITCKASQNVGTAVAWYQQKPGKAPKLLIYAASTLQSGVPSRFSGSGSGTEFTLTISSLQPEDFATYYCLQKSSYPLTFGGGTKVEIKR :: no binding
